biological target: EcPDF (Escherichia coli); construct: made in house; experiment: PDF inhibition, formate dehydrogenase-coupled spectrophotometric assay (EcPDF); assay type: biochemical; details: enhancement potency (slow tight-binding)
Sequence (P0A6K3 whole entry): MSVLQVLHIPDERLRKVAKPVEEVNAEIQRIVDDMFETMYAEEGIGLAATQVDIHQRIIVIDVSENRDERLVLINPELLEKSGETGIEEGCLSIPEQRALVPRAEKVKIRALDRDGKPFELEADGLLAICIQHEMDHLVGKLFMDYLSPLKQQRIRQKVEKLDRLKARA
Param threshold (3) applies to EcPDF KI/KI*app; output t when value >= threshold, f when value < threshold.

O=C(Cc1cn(Cc2ccccc2)c2ccc(Br)cc12)NO = f
CCCCC(CC(=O)NO)c1nc(Cc2ccc(C(=O)OC)cc2)no1 (stereo not drawn) = t
CCCCC(CC(=O)NO)c1nc(Cc2ccc(F)cc2)no1 (stereo not drawn) = t
CCCCC(CC(=O)NO)c1nc(Cc2ccc(C(F)(F)F)cc2)no1 (stereo not drawn) = t
CCCCC(CC(=O)NO)c1nc(Cc2ccc3c(c2)OCO3)no1 (stereo not drawn) = f
O=C(C[C@@H](CC1CCCC1)c1nc(Cc2coc3ccccc23)no1)NO = t
CCCC[C@H](CC(=O)NO)c1nc(Cc2ccc(OC(F)(F)F)cc2)no1 = f
O=C(C[C@@H](CC1CCCC1)c1nc(Cc2ccc3c(c2)OCO3)no1)NO = t
O=C(Cn1cc(Cc2ccccc2)c2cc(Br)ccc21)NO = f
CC(C)(C)OC(=O)N[C@@H](Cc1ccccc1)CN(O)C=O = t
O=C(Cc1c[nH]c2ccc(Br)cc12)NO = f

---

Listing: AtPDF1B KI/KI*app of selected compounds
biological target: AtPDF1B (Arabidopsis thaliana, UniProt Q9FUZ2); construct: made in house; experiment: PDF inhibition, formate dehydrogenase-coupled spectrophotometric assay (AtPDF1B); type: biochemical; conditions: enhancement potency (slow tight-binding)
Sequence (Q9FUZ2 83-273): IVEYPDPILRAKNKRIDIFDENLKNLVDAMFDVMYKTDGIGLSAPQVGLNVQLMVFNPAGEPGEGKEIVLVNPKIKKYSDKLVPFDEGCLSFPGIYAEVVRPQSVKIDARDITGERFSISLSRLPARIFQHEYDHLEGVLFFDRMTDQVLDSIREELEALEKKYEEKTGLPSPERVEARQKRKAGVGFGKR
measured-attribute: AtPDF1B KI/KI*app

O=C(Cc1c[nH]c2ccc(Br)cc12)NO = 1
CCCCC(CC(=O)NO)c1nc(Cc2ccc(C(=O)OC)cc2)no1 (stereo not drawn) = 1
O=C(C[C@@H](CC1CCCC1)c1nc(Cc2ccc3c(c2)OCO3)no1)NO = 2
CCCCC(CC(=O)NO)c1nc(Cc2ccc(F)cc2)no1 (stereo not drawn) = 1
O=C(Cn1cc(Cc2ccccc2)c2cc(Br)ccc21)NO = 1
O=C(C[C@@H](CC1CCCC1)c1nc(Cc2coc3ccccc23)no1)NO = 5
CC(C)(C)OC(=O)N[C@@H](Cc1ccccc1)CN(O)C=O = 5
O=C(Cc1cn(Cc2ccccc2)c2ccc(Br)cc12)NO = 1
CCCCC(CC(=O)NO)c1nc(Cc2ccc(C(F)(F)F)cc2)no1 (stereo not drawn) = 1

---

Listing: SaPDF KI/KI*app of selected compounds
Target: SaPDF (Streptococcus agalactiae serotype III, UniProt Q8E378, S2A)
Construct: the recombinant protein contains all residues of the 204 amino acids mature protein; made in house; host or cells: E. coli Rosetta 2(DE3)pLysS
Sequence (Q8E378 whole entry S2A): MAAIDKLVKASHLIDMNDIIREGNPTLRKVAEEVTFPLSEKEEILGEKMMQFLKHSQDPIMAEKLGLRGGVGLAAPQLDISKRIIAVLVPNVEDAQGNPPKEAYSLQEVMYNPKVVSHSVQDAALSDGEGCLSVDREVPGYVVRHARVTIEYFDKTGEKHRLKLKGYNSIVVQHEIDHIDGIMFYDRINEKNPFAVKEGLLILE
Experiment: biochemical
Conditions: enhancement potency (slow tight-binding)
Method: Enzymatic activity was measured by a spectrophotometric assay where peptide deformylase activity is coupled to that of formate dehydrogenase. The formate released by the deformylation reaction is used by FDH to convert NAD in NADH, the production of which being measured over time at 340 nm and controlled temperature (37 °C). […]
measured-attribute: SaPDF KI/KI*app

CCCCC(CC(=O)NO)c1nc(Cc2ccc3c(c2)OCO3)no1 (centres unmarked) = 1
CCCC[C@H](CC(=O)NO)c1nc(Cc2coc3ccccc23)no1 = 1
CCCCC(CC(=O)NO)c1nc(Cc2ccc(C(F)(F)F)cc2)no1 (centres unmarked) = 1
CC(C)(C)OC(=O)N[C@@H](Cc1ccccc1)CN(O)C=O = 3
CCCCC(CC(=O)NO)c1nc(-c2ccc(C(F)(F)F)cc2)no1 (centres unmarked) = 1
CCCCC(CC(=O)NO)c1nc(Cc2ccc(-c3ccccc3)cc2)no1 (centres unmarked) = 1
O=C(Cc1c[nH]c2ccc(Br)cc12)NO = 1
O=C(Cn1cc(Cc2ccccc2)c2cc(Br)ccc21)NO = 1
O=C(Cc1cn(Cc2ccccc2)c2ccc(Br)cc12)NO = 1
CCCC[C@H](CC(=O)NO)c1nc(Cc2ccc(OC(F)(F)F)cc2)no1 = 1
CCCCC(CC(=O)NO)c1nc(Cc2ccc(C(=O)OC)cc2)no1 (centres unmarked) = 2
